Provide the recorded % IOD for the entries that follow.
- System: specific serum IgG antibodies in sera from patients diagnosed with a H. pylori infection
- PROTOCOL_SUMMARY: Quantitative Western-blot analysis (integrated optical density) of patient sera on H. pylori whole cell lysate antigens
- Type: binding, human
- CONDITION_CONTEXT: antigens from Hp08 (FIG. 2); sera 5 months post therapy

Endpoint output: % IOD of Omp18-peptido-glycan associated lipoprotein precursor (protein, 30 kd H. pylori antigen band in whole cell lysate, identified as Omp18) MKRSSVFSFLVAFLLVAGCSHKMDNKTVAGDVSAKTVQTAPVTTEPAPEKEEPKQEPAPVVEEKPAVESGTIIASIYFDFDKYEIKESDQETLDEIVQKAKENHMQVLLEGNTDEFGSSEYNQALGVKRTLSVKNALVIKGVEKDMIKTISFGETKPKCAQKTRECYKENRRVDVKLMK . Value? 40.77 +/− 4.45%

I'd like to know its % IOD. The molecule in question is HpaA-neuraminyl-lactose-hemagglutinin precursor (protein, 32 kd H. pylori antigen band in whole cell lysate, identified as HpaA) MKKGSLAIVLGSLLASGAFYTALADGMPAKQQHNNTGESVELHFHYPIKGKQEPKNSHLVVLIEPKIEINKVIPESYQKEFEKSLFLQLSSFLERKGYSVSQFKDASEIPQDIKEKALLVLRMDGNVAILEDIVEESDALSEEKVIDMSSGYLNLNFVEPKSEDIIHSFGIDVSKIKAVIERVELRRTNSGGFVPKTFVHRIKETDHDQAIRKIMNQAYHKVMVHITKELSKKHMEHYEKVSSEMKKRK 21.06 +/− 8.01%

Given the molecule HP0596 a hypothetical protein (protein, 23 kd H. pylori antigen band in whole cell lysate, identified as HP0596) MLEKSFLKSKQLFLCGLGVLMLQACTCPNTSQRNSFLQDVPYWMLQNRSEYITQGVDSSHIVDGKKTEEIEKIATKRATIRVAQNIVHKLKEAYLSKTNRIKQKITNEMFIQMTQPIYDSLMNVDRLGIYINPNNEEVFALVRARGFDKDALSEGLHKMSLDNQAVSILVAKVEEIFKDSVNYGDVKVPIAM , what is its reported % IOD? 11.36 +/− 4.45%

Requested read-out: % IOD. Entry: RPL7/L12 50S ribosomal protein L7/L12 (protein, 15 kd H. pylori antigen band in whole cell lysate, identified as RPL7/L12) MNISVNPYLMAVVFVVFVLLLWAMNVWVYRPLLAFMDNRQAEIKDSLAKIKTDNAQSVEIGHQIEALLKEAAEKRREIIAEAIQKATESYDAVIKQKENELNQEFEAFAKQLQNEKQALKEQLQAQMPVFEDELNKRVAMGLGS 9.96 +/− 4.99%
